# Tested on: Mycobacterium tuberculosis Erdman (autoluminescent)
# Protocol Text: Einf, fitted maximum growth inhibition of three-drug combination (fraction); higher = stronger maximal inhibition
# Conditions Used: in vitro model: valerate; time point: constant (~7 days, model-specific)
Please respond with reported Einf for every item in the list.
Give bare numbers.

O=[N+]([O-])c1cn2c(n1)OC[C@@H](OCc1ccc(OC(F)(F)F)cc1)C2 [pretomanid] + NC(=O)c1cnccn1 [pyrazinamide] + CO[C@H]1/C=C/O[C@@]2(C)Oc3c(C)c(O)c4c(O)c(c(/C=N/N5CCN(C)CC5)c(O)c4c3C2=O)NC(=O)/C(C)=C\C=C\[C@H](C)[C@H](O)[C@@H](C)[C@@H](O)[C@@H](C)[C@H](OC(C)=O)[C@@H]1C [rifampicin]
0.854
COc1nc2ccc(Br)cc2cc1[C@@H](c1ccccc1)[C@@](O)(CCN(C)C)c1cccc2ccccc12 [bedaquiline] + NNC(=O)c1ccncc1 [isoniazid] + O=[N+]([O-])c1cn2c(n1)OC[C@@H](OCc1ccc(OC(F)(F)F)cc1)C2 [pretomanid]
0.886

Field: next compound
stdin: Identify Einf associated with the compound COc1nc2ccc(Br)cc2cc1[C@@H](c1ccccc1)[C@@](O)(CCN(C)C)c1cccc2ccccc12 [bedaquiline] + CC(C)/N=c1\cc2n(-c3ccc(Cl)cc3)c3ccccc3nc-2cc1Nc1ccc(Cl)cc1 [clofazimine] + CO[C@H]1/C=C/O[C@@]2(C)Oc3c(C)c(O)c4c(O)c(c(/C=N/N5CCN(C6CCCC6)CC5)c(O)c4c3C2=O)NC(=O)/C(C)=C\C=C\[C@H](C)[C@H](O)[C@@H](C)[C@@H](O)[C@@H](C)[C@H](OC(C)=O)[C@@H]1C [rifapentine]
stdout: 0.895

* * *

# Test system: Mycobacterium tuberculosis Erdman (autoluminescent)
# Protocol Text: GRinf, maximum normalised growth rate inhibition (unitless (-1 to 1)); higher = less effect (negative = killing)
# Conditions Used: in vitro model: intracellular J774; time point: constant = terminal
Exercise: state measured GRinf for each of the compounds provided.

Here's what some known entries look like.
CC[C@@H](CO)NCCN[C@@H](CC)CO [ethambutol] + CO[C@H]1/C=C/O[C@@]2(C)Oc3c(C)c(O)c4c(O)c(c(/C=N/N5CCN(C)CC5)c(O)c4c3C2=O)NC(=O)/C(C)=C\C=C\[C@H](C)[C@H](O)[C@@H](C)[C@@H](O)[C@@H](C)[C@H](OC(C)=O)[C@@H]1C [rifampicin]
-0.274
CC(C)/N=c1\cc2n(-c3ccc(Cl)cc3)c3ccccc3nc-2cc1Nc1ccc(Cl)cc1 [clofazimine] + CO[C@H]1/C=C/O[C@@]2(C)Oc3c(C)c(O)c4c(O)c(c(/C=N/N5CCN(C)CC5)c(O)c4c3C2=O)NC(=O)/C(C)=C\C=C\[C@H](C)[C@H](O)[C@@H](C)[C@@H](O)[C@@H](C)[C@H](OC(C)=O)[C@@H]1C [rifampicin]
-0.265
COc1nc2ccc(Br)cc2cc1[C@@H](c1ccccc1)[C@@](O)(CCN(C)C)c1cccc2ccccc12 [bedaquiline] + CC(=O)NC[C@H]1CN(c2ccc(N3CCOCC3)c(F)c2)C(=O)O1 [linezolid]
0.0692
NNC(=O)c1ccncc1 [isoniazid] + O=[N+]([O-])c1cn2c(n1)OC[C@@H](OCc1ccc(OC(F)(F)F)cc1)C2 [pretomanid]
-0.631
NNC(=O)c1ccncc1 [isoniazid] + CO[C@H]1/C=C/O[C@@]2(C)Oc3c(C)c(O)c4c(O)c(c(/C=N/N5CCN(C)CC5)c(O)c4c3C2=O)NC(=O)/C(C)=C\C=C\[C@H](C)[C@H](O)[C@@H](C)[C@@H](O)[C@@H](C)[C@H](OC(C)=O)[C@@H]1C [rifampicin]
-0.212

Could you report GRinf for every entry in the following list?
1. CC(C)/N=c1\cc2n(-c3ccc(Cl)cc3)c3ccccc3nc-2cc1Nc1ccc(Cl)cc1 [clofazimine] + CC[C@@H](CO)NCCN[C@@H](CC)CO [ethambutol]
2. COc1nc2ccc(Br)cc2cc1[C@@H](c1ccccc1)[C@@](O)(CCN(C)C)c1cccc2ccccc12 [bedaquiline] + O=[N+]([O-])c1cn2c(n1)OC[C@@H](OCc1ccc(OC(F)(F)F)cc1)C2 [pretomanid]
3. CC(C)/N=c1\cc2n(-c3ccc(Cl)cc3)c3ccccc3nc-2cc1Nc1ccc(Cl)cc1 [clofazimine] + COc1c(N2C[C@@H]3CCCN[C@@H]3C2)c(F)cc2c(=O)c(C(=O)O)cn(C3CC3)c12 [moxifloxacin]

stdout:
1: -0.789; 2: -0.579; 3: -0.283

* * *

Exercise: state measured GRinf for each of the compounds provided.
# Test system: Mycobacterium tuberculosis Erdman (autoluminescent)
# Protocol Text: GRinf, maximum normalised growth rate inhibition (unitless (-1 to 1)); higher = less effect (negative = killing)
# Conditions Used: in vitro model: intracellular J774; time point: constant = terminal
Numbers only.

NNC(=O)c1ccncc1 [isoniazid] + CC(=O)NC[C@H]1CN(c2ccc(N3CCOCC3)c(F)c2)C(=O)O1 [linezolid]
-0.0635
CC(C)/N=c1\cc2n(-c3ccc(Cl)cc3)c3ccccc3nc-2cc1Nc1ccc(Cl)cc1 [clofazimine] + NC(=O)c1cnccn1 [pyrazinamide]
-0.38
CC(C)/N=c1\cc2n(-c3ccc(Cl)cc3)c3ccccc3nc-2cc1Nc1ccc(Cl)cc1 [clofazimine] + NNC(=O)c1ccncc1 [isoniazid]
-0.209

Provide the reported GRinf of each entry below, same order.
1. COc1c(N2C[C@@H]3CCCN[C@@H]3C2)c(F)cc2c(=O)c(C(=O)O)cn(C3CC3)c12 [moxifloxacin] + O=[N+]([O-])c1cn2c(n1)OC[C@@H](OCc1ccc(OC(F)(F)F)cc1)C2 [pretomanid]
2. CC(C)/N=c1\cc2n(-c3ccc(Cl)cc3)c3ccccc3nc-2cc1Nc1ccc(Cl)cc1 [clofazimine] + O=[N+]([O-])c1cn2c(n1)OC[C@@H](OCc1ccc(OC(F)(F)F)cc1)C2 [pretomanid]
3. CC[C@@H](CO)NCCN[C@@H](CC)CO [ethambutol] + CO[C@H]1/C=C/O[C@@]2(C)Oc3c(C)c(O)c4c(O)c(c(/C=N/N5CCN(C6CCCC6)CC5)c(O)c4c3C2=O)NC(=O)/C(C)=C\C=C\[C@H](C)[C@H](O)[C@@H](C)[C@@H](O)[C@@H](C)[C@H](OC(C)=O)[C@@H]1C [rifapentine]
4. CO[C@H]1/C=C/O[C@@]2(C)Oc3c(C)c(O)c4c(O)c(c(/C=N/N5CCN(C6CCCC6)CC5)c(O)c4c3C2=O)NC(=O)/C(C)=C\C=C\[C@H](C)[C@H](O)[C@@H](C)[C@@H](O)[C@@H](C)[C@H](OC(C)=O)[C@@H]1C [rifapentine] + CO[C@H]1/C=C/O[C@@]2(C)Oc3c(C)c(O)c4c(O)c(c(/C=N/N5CCN(C)CC5)c(O)c4c3C2=O)NC(=O)/C(C)=C\C=C\[C@H](C)[C@H](O)[C@@H](C)[C@@H](O)[C@@H](C)[C@H](OC(C)=O)[C@@H]1C [rifampicin]

stdout:
-0.437
-0.541
-0.236
-0.195

* * *

# Test system: Mycobacterium tuberculosis Erdman (autoluminescent)
# Protocol Text: AUC25, normalised area under dose response up to IC25 (three-drug combination) (fraction (0-1)); higher = more potent at low dose
# Conditions Used: in vitro model: standard 7H9 glycerol; time point: constant = terminal
Readout: AUC25
Answers are plain numbers.

NNC(=O)c1ccncc1 [isoniazid] + CC(=O)NC[C@H]1CN(c2ccc(N3CCOCC3)c(F)c2)C(=O)O1 [linezolid] + NC(=O)c1cnccn1 [pyrazinamide]
0.0756
CC(C)/N=c1\cc2n(-c3ccc(Cl)cc3)c3ccccc3nc-2cc1Nc1ccc(Cl)cc1 [clofazimine] + NNC(=O)c1ccncc1 [isoniazid] + COc1c(N2C[C@@H]3CCCN[C@@H]3C2)c(F)cc2c(=O)c(C(=O)O)cn(C3CC3)c12 [moxifloxacin]
0.0829

Shift focus to the following entry.
stdin: # return recorded AUC25 for input CC(C)/N=c1\cc2n(-c3ccc(Cl)cc3)c3ccccc3nc-2cc1Nc1ccc(Cl)cc1 [clofazimine] + CC[C@@H](CO)NCCN[C@@H](CC)CO [ethambutol] + CO[C@H]1/C=C/O[C@@]2(C)Oc3c(C)c(O)c4c(O)c(c(/C=N/N5CCN(C)CC5)c(O)c4c3C2=O)NC(=O)/C(C)=C\C=C\[C@H](C)[C@H](O)[C@@H](C)[C@@H](O)[C@@H](C)[C@H](OC(C)=O)[C@@H]1C [rifampicin]
stdout: 0.0958

* * *

I'd be grateful if you could share measured total FIC50 for these entries.
# Tested on: Mycobacterium tuberculosis Erdman (autoluminescent)
# Protocol Text: total FIC50 (Loewe) at 50% inhibition, three-drug combination (log2); higher = more antagonistic
# Conditions Used: in vitro model: acidic pH 5.7; time point: terminal (~4-5 doublings, model-specific)
Numbers only.

COc1nc2ccc(Br)cc2cc1[C@@H](c1ccccc1)[C@@](O)(CCN(C)C)c1cccc2ccccc12 [bedaquiline] + NC(=O)c1cnccn1 [pyrazinamide] + CO[C@H]1/C=C/O[C@@]2(C)Oc3c(C)c(O)c4c(O)c(c(/C=N/N5CCN(C)CC5)c(O)c4c3C2=O)NC(=O)/C(C)=C\C=C\[C@H](C)[C@H](O)[C@@H](C)[C@@H](O)[C@@H](C)[C@H](OC(C)=O)[C@@H]1C [rifampicin]
0.285
CC(=O)NC[C@H]1CN(c2ccc(N3CCOCC3)c(F)c2)C(=O)O1 [linezolid] + COc1c(N2C[C@@H]3CCCN[C@@H]3C2)c(F)cc2c(=O)c(C(=O)O)cn(C3CC3)c12 [moxifloxacin] + NC(=O)c1cnccn1 [pyrazinamide]
1.52
NNC(=O)c1ccncc1 [isoniazid] + COc1c(N2C[C@@H]3CCCN[C@@H]3C2)c(F)cc2c(=O)c(C(=O)O)cn(C3CC3)c12 [moxifloxacin] + NC(=O)c1cnccn1 [pyrazinamide]
-2.52
NNC(=O)c1ccncc1 [isoniazid] + COc1c(N2C[C@@H]3CCCN[C@@H]3C2)c(F)cc2c(=O)c(C(=O)O)cn(C3CC3)c12 [moxifloxacin] + CO[C@H]1/C=C/O[C@@]2(C)Oc3c(C)c(O)c4c(O)c(c(/C=N/N5CCN(C)CC5)c(O)c4c3C2=O)NC(=O)/C(C)=C\C=C\[C@H](C)[C@H](O)[C@@H](C)[C@@H](O)[C@@H](C)[C@H](OC(C)=O)[C@@H]1C [rifampicin]
0.624
CC[C@@H](CO)NCCN[C@@H](CC)CO [ethambutol] + NC(=O)c1cnccn1 [pyrazinamide] + CO[C@H]1/C=C/O[C@@]2(C)Oc3c(C)c(O)c4c(O)c(c(/C=N/N5CCN(C6CCCC6)CC5)c(O)c4c3C2=O)NC(=O)/C(C)=C\C=C\[C@H](C)[C@H](O)[C@@H](C)[C@@H](O)[C@@H](C)[C@H](OC(C)=O)[C@@H]1C [rifapentine]
-0.0475

// batch mode: one total FIC50 value per listed entry
1. CC(C)/N=c1\cc2n(-c3ccc(Cl)cc3)c3ccccc3nc-2cc1Nc1ccc(Cl)cc1 [clofazimine] + NNC(=O)c1ccncc1 [isoniazid] + CO[C@H]1/C=C/O[C@@]2(C)Oc3c(C)c(O)c4c(O)c(c(/C=N/N5CCN(C)CC5)c(O)c4c3C2=O)NC(=O)/C(C)=C\C=C\[C@H](C)[C@H](O)[C@@H](C)[C@@H](O)[C@@H](C)[C@H](OC(C)=O)[C@@H]1C [rifampicin]
2. NNC(=O)c1ccncc1 [isoniazid] + CC(=O)NC[C@H]1CN(c2ccc(N3CCOCC3)c(F)c2)C(=O)O1 [linezolid] + CO[C@H]1/C=C/O[C@@]2(C)Oc3c(C)c(O)c4c(O)c(c(/C=N/N5CCN(C6CCCC6)CC5)c(O)c4c3C2=O)NC(=O)/C(C)=C\C=C\[C@H](C)[C@H](O)[C@@H](C)[C@@H](O)[C@@H](C)[C@H](OC(C)=O)[C@@H]1C [rifapentine]
3. CC(C)/N=c1\cc2n(-c3ccc(Cl)cc3)c3ccccc3nc-2cc1Nc1ccc(Cl)cc1 [clofazimine] + CC[C@@H](CO)NCCN[C@@H](CC)CO [ethambutol] + NC(=O)c1cnccn1 [pyrazinamide]
4. COc1nc2ccc(Br)cc2cc1[C@@H](c1ccccc1)[C@@](O)(CCN(C)C)c1cccc2ccccc12 [bedaquiline] + CC(=O)NC[C@H]1CN(c2ccc(N3CCOCC3)c(F)c2)C(=O)O1 [linezolid] + CO[C@H]1/C=C/O[C@@]2(C)Oc3c(C)c(O)c4c(O)c(c(/C=N/N5CCN(C6CCCC6)CC5)c(O)c4c3C2=O)NC(=O)/C(C)=C\C=C\[C@H](C)[C@H](O)[C@@H](C)[C@@H](O)[C@@H](C)[C@H](OC(C)=O)[C@@H]1C [rifapentine]
5. COc1c(N2C[C@@H]3CCCN[C@@H]3C2)c(F)cc2c(=O)c(C(=O)O)cn(C3CC3)c12 [moxifloxacin] + NC(=O)c1cnccn1 [pyrazinamide] + CO[C@H]1/C=C/O[C@@]2(C)Oc3c(C)c(O)c4c(O)c(c(/C=N/N5CCN(C)CC5)c(O)c4c3C2=O)NC(=O)/C(C)=C\C=C\[C@H](C)[C@H](O)[C@@H](C)[C@@H](O)[C@@H](C)[C@H](OC(C)=O)[C@@H]1C

stdout:
1: 0.542; 2: 0.526; 3: 0.156; 4: 0.615; 5: 0.423

stdin: Tell me its total FIC50 on Mycobacterium tuberculosis Erdman (autoluminescent): CC(=O)NC[C@H]1CN(c2ccc(N3CCOCC3)c(F)c2)C(=O)O1 [linezolid] + COc1c(N2C[C@@H]3CCCN[C@@H]3C2)c(F)cc2c(=O)c(C(=O)O)cn(C3CC3)c12 [moxifloxacin] + CO[C@H]1/C=C/O[C@@]2(C)Oc3c(C)c(O)c4c(O)c(c(/C=N/N5CCN(C6CCCC6)CC5)c(O)c4c3C2=O)NC(=O)/C(C)=C\C=C\[C@H](C)[C@H](O)[C@@H](C)[C@@H](O)[C@@H](C)[C@H](OC(C)=O)[C@@H]1C [rifapentine]
stdout: 0.952
